# credit: a melting point compilation (Tetko et al.; mined from patent text by program, amines drawn as free bases though some values may be those of a salt)

READOUT: melting point

Check out these entries, answers already filled in.
> print(dat)
                                   molecule  recorded.result
1  O=C(c1ccc(OCC2CC2)c2oc3ccccc3c12)[NH+]([O-])c1cccnc1 (stereo not drawn)    272 to 275 °C
2  CC1CCCCC1N(Cc1ccc(C(=O)NC(C)(C)C(=O)O)cc1)S(=O)(=O)c1ccc(Cl)cc1 (stereo not drawn)    121 to 122 °C
3  Cc1cc(OC(F)(F)F)ccc1NC(=O)c1cccc(I)c1C(=O)NC(C)CC(=O)N(C)C (stereo not drawn)           104 °C
4  OCc1c(CN2CCN(c3ccc(Cl)cc3Cl)CC2)nc2ccc(Cl)cn12    165 to 166 °C
5  CCOC(=O)c1cccc2c(=O)cc(-c3cccc(OCc4ccc5ccccc5n4)c3)oc12         > 300 °C

QUERY: # input molecule: CCN(CC)CC1CCCCN1CCNC(=O)N1c2ccccc2NC(=O)c2cccnc21 (stereo not drawn) ; wanted: its melting point
RESULT: 146 to 148 °C

QUERY: Return reported melting point; argument: Cn1nnn(-c2c(Cl)ccc(C(=O)C3C(=O)CCCC3=O)c2Cl)c1=O
RESULT: 138 to 140 °C

QUERY: Give its melting point value. Item: CCOc1cccc(C)c1S(=O)(=O)NC(=O)c1noc(C)n1
RESULT: 168 °C

QUERY: Query (molecule): CCOC(=O)c1cn(C2CC2)c2nc(N3C[C@@H](CN(CC)C(=O)C(F)(F)F)[C@@H](F)C3)c(F)cc2c1=O (relative stereo) ; field requested: melting point
RESULT: 150 to 153 °C

QUERY: What does the data say about its melting point? Entry: O=C1CCN(C(=O)c2cc(C(F)(F)F)cc(C(F)(F)F)c2)CC1
RESULT: 155 to 157 °C

QUERY: Requested field: melting point. Item: CCCCCC(C)C(C)c1cc(O)c2c3c(c(=O)oc2c1)SCCC3 (stereo not drawn)
RESULT: 131 to 133 °C
